ASSAYED TARGET: human PR-B (Homo sapiens)
Construct: expressed in transfected cells; host or cells: CV-1 cells (African green monkey kidney fibroblasts), transient transfection
PROTOCOL SUMMARY: Co-transfection assay, PR agonist and antagonist activity, CV-1 cells
Type: cell-based
OBSERVABLE: PR Antagonist CV-1 Cells Efficacy (%)
Report only the number, with the unit % understood.

Record excerpt, results attached:
[
  {
    "COMPOUND": "CC1=CC(C)(C)Nc2ccc(-c3nn(C)cc3Br)cc21",
    "ASSAYED TARGET": "human PR-B (Homo sapiens)",
    "UNIT LABEL": "%",
    "PR Antagonist CV-1 Cells Efficacy (%)": 71
  },
  {
    "COMPOUND": "CCCCC1Oc2ccccc2-c2ccc3c(c21)C(C)C(O)(CCCC)C(C)(C)N3 (racemic)",
    "ASSAYED TARGET": "human PR-B (Homo sapiens)",
    "UNIT LABEL": "%",
    "PR Antagonist CV-1 Cells Efficacy (%)": 45
  }
]

Now let's try a different one.
stdin: Item under review: CC1=CC(C)(C)Nc2ccc(-c3cccc(Cl)c3Cl)cc21 . Reported PR Antagonist CV-1 Cells Efficacy (%)?
stdout: 87

====

Here, each record is paired with measured IC50 data.
ASSAYED TARGET: human androgen receptor (AR) (Homo sapiens, UniProt P10275)
Construct: expressed in transfected cells; host or cells: CV-1 cells, transient transfection
Sequence (P10275 whole entry): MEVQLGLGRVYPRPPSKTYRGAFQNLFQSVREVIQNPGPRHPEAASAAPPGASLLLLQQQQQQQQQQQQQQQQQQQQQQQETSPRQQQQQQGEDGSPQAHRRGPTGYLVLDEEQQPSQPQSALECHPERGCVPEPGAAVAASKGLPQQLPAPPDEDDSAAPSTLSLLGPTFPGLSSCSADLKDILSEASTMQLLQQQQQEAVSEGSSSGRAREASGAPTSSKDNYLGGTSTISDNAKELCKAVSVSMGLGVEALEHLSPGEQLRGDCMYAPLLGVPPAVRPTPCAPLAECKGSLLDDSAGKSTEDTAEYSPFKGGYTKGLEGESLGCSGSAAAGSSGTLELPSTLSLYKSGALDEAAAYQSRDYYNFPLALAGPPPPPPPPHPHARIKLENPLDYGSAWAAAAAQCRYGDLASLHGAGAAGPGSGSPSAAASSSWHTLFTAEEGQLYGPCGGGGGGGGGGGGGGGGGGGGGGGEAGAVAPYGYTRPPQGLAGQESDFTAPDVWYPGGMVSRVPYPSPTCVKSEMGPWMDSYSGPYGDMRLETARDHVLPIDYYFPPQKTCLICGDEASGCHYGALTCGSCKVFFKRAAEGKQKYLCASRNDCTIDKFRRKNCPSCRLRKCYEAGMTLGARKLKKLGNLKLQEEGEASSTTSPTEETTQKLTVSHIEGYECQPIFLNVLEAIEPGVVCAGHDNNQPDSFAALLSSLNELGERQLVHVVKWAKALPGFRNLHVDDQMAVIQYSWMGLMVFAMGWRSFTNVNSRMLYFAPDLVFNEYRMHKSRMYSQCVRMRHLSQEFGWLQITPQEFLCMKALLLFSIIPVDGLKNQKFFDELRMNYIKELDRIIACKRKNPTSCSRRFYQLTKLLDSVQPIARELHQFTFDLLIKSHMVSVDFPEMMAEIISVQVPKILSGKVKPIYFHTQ
PROTOCOL SUMMARY: Co-transfection assay, AR agonist and antagonist activity, CV-1 cells (pRShAR)
Type: cell-based

[
  {
    "COMPOUND": "CCC1CCNc2cc3oc(=O)cc(C(F)(F)F)c3cc21 (racemic) [Compound 414]",
    "IC50": "> 10000 nM"
  },
  {
    "COMPOUND": "CC1C(=O)C(C)(C)Nc2cc3[nH]c(=O)cc(C(F)(F)F)c3cc21 (racemic) [Compound 418]",
    "IC50": "200 nM"
  },
  {
    "COMPOUND": "CC1=CC(C)(C)Nc2cc3oc(=O)cc(C(F)(F)C(F)(F)F)c3cc21 [Compound 256]",
    "IC50": "62 nM"
  },
  {
    "COMPOUND": "CC1CC(C)(C)Nc2cc3oc(=O)cc(-c4ccoc4)c3cc21 (racemic) [Compound 405]",
    "IC50": "77 nM"
  },
  {
    "COMPOUND": "CC1=CC(C)(C)N(C)c2cc3oc(=O)cc(C(F)(F)F)c3cc21 [Compound 265]",
    "IC50": "56 nM"
  }
]

stdin: What value of IC50 on human androgen receptor (AR) (Homo sapiens, UniProt P10275) does CC1=CC(C)(C)Nc2cc3oc(=O)cc(C(F)(F)F)c3cc21 [Compound 238] have?
stdout: > 10000 nM

====

ASSAYED TARGET: human PR-B (Homo sapiens, UniProt P06401)
Construct: expressed in transfected cells; host or cells: CV-1 cells (African green monkey kidney fibroblasts), transient transfection
PROTOCOL SUMMARY: Co-transfection assay, PR agonist and antagonist activity, CV-1 cells;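 note: luciferase reporter driven by a hormone response element, co-transfected with human PR-B into CV-1 monkey kidney cells, agonists raise and antagonists lower the reporter signal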
Format: cell-based
Here, each record is paired with measured IC50 data.

Record excerpt, results attached:
[
  {
    "COMPOUND": "CC1=CC(C)(C)Nc2ccc3c(c21)/C(=C/c1ccccc1F)Oc1ccccc1-3 [Compound 228]",
    "MEASURED RESULT": "> 10 µM"
  },
  {
    "COMPOUND": "CC1=CC(C)(C)Nc2ccc(-c3csc(C#N)c3)cc21 [Compound 452]",
    "MEASURED RESULT": "0.024 µM"
  },
  {
    "COMPOUND": "CC1=CC(C)(C)Nc2ccc3c(c21)/C(=C/c1ccc(F)cc1)Oc1ccccc1-3 [Compound 221]",
    "MEASURED RESULT": "> 10 µM"
  }
]

stdin: Item under review: CC1=CC(C)(C)Nc2ccc3c(c21)/C(=C/c1ccccc1)Oc1ccccc1-3 [Compound 220] . Reported IC50?
stdout: > 10 µM

====

ASSAYED TARGET: UniProt P06401
Sequence (P06401 1-769 isoform P06401-2): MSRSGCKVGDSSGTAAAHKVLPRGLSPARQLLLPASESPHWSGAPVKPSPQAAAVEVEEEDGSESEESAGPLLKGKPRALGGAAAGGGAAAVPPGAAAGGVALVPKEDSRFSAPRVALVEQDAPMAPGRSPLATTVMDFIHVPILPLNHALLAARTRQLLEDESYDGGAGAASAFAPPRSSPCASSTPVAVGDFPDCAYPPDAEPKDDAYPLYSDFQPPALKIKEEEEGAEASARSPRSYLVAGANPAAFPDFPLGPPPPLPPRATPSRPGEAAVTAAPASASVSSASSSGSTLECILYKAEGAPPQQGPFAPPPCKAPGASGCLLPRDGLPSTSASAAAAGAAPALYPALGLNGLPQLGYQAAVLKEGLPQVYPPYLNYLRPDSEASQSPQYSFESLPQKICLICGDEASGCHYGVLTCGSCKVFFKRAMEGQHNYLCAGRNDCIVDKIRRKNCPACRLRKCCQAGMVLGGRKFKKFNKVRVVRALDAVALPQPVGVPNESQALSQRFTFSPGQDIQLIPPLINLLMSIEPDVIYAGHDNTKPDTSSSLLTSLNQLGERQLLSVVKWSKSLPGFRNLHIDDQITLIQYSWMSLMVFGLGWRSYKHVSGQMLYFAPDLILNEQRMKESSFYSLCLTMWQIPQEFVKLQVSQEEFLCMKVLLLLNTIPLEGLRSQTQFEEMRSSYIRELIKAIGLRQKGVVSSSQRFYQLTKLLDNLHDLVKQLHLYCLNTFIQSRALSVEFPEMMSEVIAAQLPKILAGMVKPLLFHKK
PROTOCOL SUMMARY: PR binding assay, baculovirus extract, [3H] progesterone
ASSAY SETUP: read-out: PR Binding Ki
OBSERVABLE: Ki

Record excerpt, results attached:
[
  {
    "COMPOUND": "CC1=CC(C)(C)Nc2ccc(-c3cccc([N+](=O)[O-])c3)c(Cl)c21 [Compound 310]",
    "Ki": "7 nM"
  },
  {
    "COMPOUND": "CC1=CC(C)(C)Nc2ccc3c(c21)C(c1ccc(Cl)cc1)Oc1ccccc1-3 (racemic) [Compound 163]",
    "Ki": "1 nM"
  },
  {
    "COMPOUND": "CC1C(=O)C(C)(C)Nc2ccc3c(c21)/C(=C/c1cccc(F)c1)Oc1ccccc1-3 (racemic) [Compound 389]",
    "Ki": "4 nM"
  },
  {
    "COMPOUND": "CC1=CC(C)(C)Nc2ccc3c(c21)C(c1cccc(C(F)(F)F)c1)Oc1ccccc1-3 (racemic) [Compound 195]",
    "Ki": "3 nM"
  }
]

stdin: Item under review: CC1(C)C=Cc2c(ccc3c2/C(=C/c2ccccc2)Oc2ccc(Cl)cc2-3)N1 [Compound 368] . Reported Ki?
stdout: 4 nM

stdin: Item under review: CC1=CC(C)(C)Nc2ccc3c(c21)C(c1cccc(F)c1)Oc1ccccc1-3 (racemic) [Compound 191] . Reported Ki?
stdout: 1 nM

stdin: Item under review: CCCO[C@@H]1[C@@H](C)c2c(ccc3c2[C@H](c2ccc(Cl)cc2)Oc2ccccc2-3)NC1(C)C (racemic) [Compound 400] . Reported Ki?
stdout: 14 nM

====

ASSAYED TARGET: human androgen receptor (AR) (Homo sapiens)
Construct: expressed in transfected cells; host or cells: CV-1 cells, transient transfection
PROTOCOL SUMMARY: Co-transfection assay, AR agonist and antagonist activity, CV-1 cells (pRShAR)
Format: cell-based
ASSAY SETUP: read-out: AR Agonist CV-1 Cells Potency; agonist mode; EC50
pEC50: −log10 of the molar value.
Here, each record is paired with measured pEC50 data.

[
  {
    "COMPOUND": "CC1C(=O)C(C)(C)Nc2cc3[nH]c(=O)cc(C(F)(F)F)c3cc21 (racemic)",
    "ASSAYED TARGET": "human androgen receptor (AR) (Homo sapiens)",
    "pEC50": "< 5.00"
  }
]

stdin: Item under review: CC1CC(C)(C)Nc2cc3oc(=O)cc(-c4ccoc4)c3cc21 (racemic) . Reported pEC50?
stdout: < 5.00

====

ASSAYED TARGET: human androgen receptor (AR) (Homo sapiens)
Construct: expressed in transfected cells; host or cells: CV-1 cells, transient transfection
PROTOCOL SUMMARY: Co-transfection assay, AR agonist and antagonist activity, CV-1 cells (pRShAR)
Type: cell-based
OBSERVABLE: EC50

Record excerpt, results attached:
[
  {
    "MOLECULE": "CC1CC(C)(C)Nc2cc3oc(=O)cc(-c4ccoc4)c3cc21 (racemic)",
    "ASSAYED TARGET": "human androgen receptor (AR) (Homo sapiens)",
    "MEASURED RESULT": "> 10 µM"
  },
  {
    "MOLECULE": "CC1=CC(C)(C)Nc2cc3oc(=O)cc(C(F)(F)C(F)(F)F)c3cc21",
    "ASSAYED TARGET": "human androgen receptor (AR) (Homo sapiens)",
    "MEASURED RESULT": "> 10 µM"
  },
  {
    "MOLECULE": "CCC1CCNc2cc3oc(=O)cc(C(F)(F)F)c3cc21 (racemic)",
    "ASSAYED TARGET": "human androgen receptor (AR) (Homo sapiens)",
    "MEASURED RESULT": "0.001 µM"
  }
]

stdin: Item under review: CC1=CC(C)(C)Nc2cc3oc(=O)cc(C(F)(F)F)c3cc21 . Reported EC50?
stdout: 0.01 µM

stdin: Item under review: CC1C(=O)C(C)(C)Nc2cc3[nH]c(=O)cc(C(F)(F)F)c3cc21 (racemic) . Reported EC50?
stdout: > 10 µM

stdin: Item under review: CC1=CC(C)(C)N(C)c2cc3oc(=O)cc(C(F)(F)F)c3cc21 . Reported EC50?
stdout: > 10 µM
